Test system: K-562 leukemia
Assay: NCI tumour cell line growth inhibition, 48 h
In this section, each of the compounds is paired with its reported TGI.
property: TGI

O=C1C=C2CC[C@H]3[C@@H]4CC[C@H](OC(=O)c5cccc6cc7ccccc7nc56)[C@H]4CC[C@@H]3[C@H]2CC1: > 100 µM
CC(=O)C1=C(O)CCC1=O: > 100 µM
COc1ccc(C)cc1Nc1nnc(-c2ccc(N)cc2)s1: > 100 µM
COC(=O)[C@H](COC(=O)/C=C/c1ccc(OC(C)=O)c(OC(C)=O)c1)NC(=O)/C=C/c1ccc(OC(C)=O)c(OC(C)=O)c1: > 100 µM
C=C(C)[C@@H]1CC[C@]2(C(N)=O)CC[C@]3(C)[C@H](CC[C@@H]4[C@@]5(C)C/C(=C/c6cccnc6)[C@H](O)C(C)(C)[C@@H]5CC[C@]43C)[C@@H]12: > 100 µM
COC(=O)c1ccc(NCC2=CC(=O)C=CC2=O)cc1: 6.95 µM
COc1ccc(C2c3c(-c4ccccc4)nn(-c4ccccc4)c3Oc3ncn4nc(CC#N)nc4c32)cc1OC (configuration not stated): > 100 µM
CCOC(=O)NC1CC2CCC1(OC)C=C2C (configuration not stated): > 100 µM
COCN1C(=O)[C@@H]2CCCN2C(=O)c2ccc([N+](=O)[O-])cc21: > 100 µM
OC(CC(O)(C(F)(F)F)C(F)(F)F)C(O)c1ccco1 (configuration not stated): > 10 µM
O=C(O)CCSC(=S)Nc1ccc([N+](=O)[O-])cc1: > 63 µM
CC(C)NC(=O)OCc1c(COC(=O)NC(C)C)c(-c2ccc[n+](COC(=O)C(C)(C)C)c2)n2c1CCC2: > 100 µM
N#CCc1nc(-c2cc3c(ccc4ccccc43)oc2=O)cs1: > 100 µM
COc1ccc2c(c1)OC(c1ccccc1O)CC2=O (configuration not stated): > 100 µM
N#Cc1nn(-c2cc(=O)[nH]c3ccc(Br)cc23)c(N)c1C#N: > 100 µM
O=NN(CCCl)C(=O)N[C@H]1CCCC[C@@H]1Cl: > 100 µM
O=C(N/N=C(\c1nc2ccc(Cl)cc2[nH]c1=O)C(O)c1ccccc1Cl)c1ccncc1 (configuration not stated): > 100 µM
